# Tested on: Mycolicibacterium aurum
# TEST_METHOD_NOTES: Antibacterial activity against Mycobacterium aurum ATCC 23366 after incubated for 16 to 48 hrs at 28 to 37 degC […]
# Assay type: functional
Numbered stars: 1 amine (or outer) side, 2 acyl side, 3 side chain; on linkers, the order of the positions; unused ones are H or OH. Bridge positions count the residues as written; N and C are the ends. Square brackets hold non-standard residues; d marks the D form. Peptide text beside a SMILES is read from it. I, II: the chains in the order shown. Actinocin(1to9) = Cc1c2oc3c(C)ccc(C(=O)[*:2])c3nc-2c(C(=O)[*:1])c(N)c1=O; NMeV = CN[C@H](C(=O)O)C(C)C; Sar = CNCC(=O)O
QUANTITY: MIC (µg/mL)
# value in µg/mL; strip the unit string

Record Cc1c2oc3c(C)ccc(C(=O)N[C@@H]4C(=O)N[C@H](C(C)C)C(=O)N5CCC[C@H]5C(=O)N(C)CC(=O)N(C)[C@@H](C(C)C)C(=O)O[C@@H]4C)c3nc-2c(C(=O)N[C@@H]2C(=O)N[C@H](C(C)C)C(=O)N3CCC[C@H]3C(=O)N(C)CC(=O)N(C)[C@@H](C(C)C)C(=O)O[C@@H]2C)c(N)c1=O [DACTINOMYCIN] (I: T[dV]P[Sar][NMeV] / II: T[dV]P[Sar][NMeV]; ester I:1-I:C, II:1-II:C; linker I:N-II:N via Actinocin(1to9)) : what is its MIC with Mycolicibacterium aurum? 0.6

Record Cc1c2oc3c(C)ccc(C(=O)N[C@@H]4C(=O)N[C@H](C(C)C)C(=O)N5[C@H](C(=O)N(C)CC(=O)N(C)[C@@H](C(C)C)C(=O)O[C@@H]4C)[C@@H](O)C[C@@H]5C)c3nc-2c2c(c1=O)N[C@H]([C@@H]1NC(=O)[C@H](C)N(C)C(=O)CN(C)C(=O)[C@@H]3CC(=O)CN3C(=O)[C@@H](C(C)C)NC1=O)COC2=O : what is its MIC with Mycolicibacterium aurum? 0.95
